Cited source for all entries: patent EP4269437A1

TEST SYSTEM: T1, PD-1.His (UniProt Q15116 25-170, limits assumed)
T1 construct: not shown: His tag
T1 sequence (Q15116 25-170 limits assumed): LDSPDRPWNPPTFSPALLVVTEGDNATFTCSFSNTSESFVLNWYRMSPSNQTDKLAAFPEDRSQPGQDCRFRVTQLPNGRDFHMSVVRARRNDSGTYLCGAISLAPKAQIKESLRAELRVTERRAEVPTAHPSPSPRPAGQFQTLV
PROTOCOL DESCRIPTION: SPR, antibody captured on protein A, PD-1.His in flow
# Kd values compiled below
Your answer should be a plain number; it is taken to be in nM.

# count of solved cases: 6
NB182-z2 (Fc fusion, format not restated; not shown: IgG4 constant region of vector pCDNA3.4-IgG4) heavy: EVQLVESGGGLVQPGGSLRLSCSASGDTSFISAAGWYRQAPGKERELVSAITNTGITYYPDSVKGRFTISRDNAKNTVYLQMNSLRAEDTAVYYCNAGAPPPGGLGYDESDYWGQGTQVTVSS | 8.2
NB182 (Fc fusion, not shown: IgG4 constant region of vector pCDNA3.4-IgG4) heavy: QVQLVESGGGLVQAGGSLRLSCAASGDTSFISAAGWYRQAPGKERELVAAITNTGITYYPDSVKGRFTISRDNAKNTVYLQMNNLKPEDTAVYYCNAGAPPPGGLGYDESDYWGQGTQVTVSS | 8.67
NB194-z1 (Fc fusion, format not restated; not shown: IgG4 constant region of vector pCDNA3.4-IgG4) heavy: EVQLVESGGGLVQPGGSLRLSCAASGRPFSIYDMGWFRQAPDKERESVAVISLSRGNTYYADSVKGRFTISRDNAKNTVYLQMNSLRAEDTAVYSCGVDRRQYGLGIPPLADHWGQGTQVTVSS | 0.837
NB194 (Fc fusion, not shown: IgG4 constant region of vector pCDNA3.4-IgG4) heavy: QVQLVETGGGLVRAGGSLRLSCTASGRPFSIYDMGWFRQAPDKERESVAVINLSRGDTYYADSVKGRFTISLDSAKNTVYLQMNSLKPEDTAVYSCGVDRRQYGLGIPPLADHWGQGTQVTVSS | 0.494
NB194-z5 (Fc fusion, format not restated; not shown: IgG4 constant region of vector pCDNA3.4-IgG4) heavy: EVQLVESGGGLVQPGGSLRLSCAASGRPFSIYDMGWFRQAPDKERESVAVINLSRGNTYYADSVKGRFTISRDNAKNTVYLQMNSLRAEDTAVYSCGVDRRQYGLGIPPLADHWGQGTQVTVSS | 0.598
NB182-z5 (Fc fusion, format not restated; not shown: IgG4 constant region of vector pCDNA3.4-IgG4) heavy: EVQLVESGGGLVQPGGSLRLSCSASGDTSFISAAGWYRQAPGKERELVAAITNTGITYYPDSVKGRFTISRDNSKNTVYLQMNSLRAEDTAVYYCNAGAPPPGGLGYDESDYWGQGTLVTVSS | 14

### Prompt Kindly indicate its recorded Kd. Item: NB194-z4 (Fc fusion, format not restated; not shown: IgG4 constant region of vector pCDNA3.4-IgG4) heavy: EVQLVESGGGLVQPGGSLRLSCAASGRPFSIYDMGWFRQAPDKERESVAVINLARGNTYYADSVKGRFTISRDNAKNTVYLQMNSLRAEDTAVYSCGVDRRQYGLGIPPLADHWGQGTQVTVSS
### Response 0.586
